test system: OVCAR-8 ovarian; assay: NCI-60 one-dose screen, 48 h; conditions: 10 µM unless noted
Compounds without any hit were thinned out: in the full panel of roughly 83,000, 20% have a hit. Active and inactive are the calls of the source. Rule for the calls: active = growth percent below 10; inactive = the rest.
Your answer must be one of the following: active, inactive

Please indicate how the test categorized "COc1ccc(-c2cnnn2-c2nonc2-n2cccc2)cc1OC" .
inactive

Please indicate how the test categorized "Clc1ccc(-c2nc3ccccc3s2)cc1Cl" .
inactive

Please indicate how the test categorized "CCN(CC)CCOc1ccc(/C(=C(/C)c2ccccc2)c2ccc(OC(C)=O)cc2)cc1" .
inactive

Please indicate how the test categorized "COc1cc(-c2nn(C(=O)NS(=O)(=O)c3ccccc3)cc2-c2ccncc2)ccc1Cl" .
inactive

Please indicate how the test categorized "Cc1cc(N/N=C/c2nc(-c3ccccc3)oc2C)c2cc(Br)ccc2n1" .
inactive

Please indicate how the test categorized "COc1ccc(-c2nc(SCCC(C)C)nc(Nc3ccc(F)c(Cl)c3)c2C#N)cc1" .
inactive

Please indicate how the test categorized "CC1(c2ccc(Cl)cc2)OC(=O)CC(=O)O1" .
inactive

Please indicate how the test categorized "COc1ccc(C(=O)N2NC(=O)/C(=C/c3cn(-c4ccccc4)nc3-c3ccccc3)N=C2c2ccccc2)cc1" .
inactive

Please indicate how the test categorized "Brc1cccc(-c2cc(-c3ccc4nccnc4c3)[nH]n2)c1" .
inactive

Please indicate how the test categorized CCN(CC)CCC(CNc1c2ccc(Cl)cc2nc2ccc(OC)cc12)c1ccccc1 (stereo not given) .
active

====

tested on: UACC-257 melanoma; assay: NCI-60 one-dose screen, 48 h; details: 10 µM unless noted
About 83,000 compounds went through this panel and 20% of them were active in at least one assay; those are over-represented in the sample as a whole. Active and inactive are the calls of the source. How the source made its calls: active means growth percent below 10; inactive means the rest.
Your answer must be one of the following: active, inactive

Please indicate how the test categorized "c1ccc(-c2cn(-c3ccccc3)c(-c3ccccc3)n2)cc1" .
active

Please indicate how the test categorized "CN(C)CCCN(c1nc(C(Cl)(Cl)Cl)ns1)c1nc(C(Cl)(Cl)Cl)ns1" .
inactive

Please indicate how the test categorized "CC(=O)Nc1ccc(S(=O)(=O)n2ccc(-c3ccc4c(c3)CCC(C)(C)O4)n2)cc1" .
inactive

Please indicate how the test categorized "CC(C)(C)n1cc(-c2ccnc(NCCCNS(=O)(=O)c3ccc(F)cc3)c2)c(-c2cccc(O)c2)n1" .
inactive

Please indicate how the test categorized "CO[C@H]1NC(=O)N(S(=O)(=O)c2ccc(Cl)cc2)[C@@H]1OC" .
inactive

====

Kindly state growth for each of the entries shown.
test system: HCC-2998 colon; assay: NCI-60 one-dose screen, 48 h (100 = growth as untreated, 0 = no growth, -100 = all killed); details: 10 µM unless noted
Compounds without any hit were thinned out: in the full panel of roughly 83,000, 20% have a hit.
Just the number please, in %, no unit attached.

Please state recorded growth (tested on HCC-2998 colon) of "N#Cc1ccc(N2Cc3ccccc3OC3=C2C(=O)c2c(O)ccc(O)c2C3=O)cc1"
30.7

Please state recorded growth (tested on HCC-2998 colon) of "COc1ccc(Nc2ncccc2C(=O)NCc2cn(Cc3cccc(Oc4ccccc4)c3)nn2)cc1"
41.7

Please state recorded growth (tested on HCC-2998 colon) of "Fc1ccccc1-c1nc(-c2nc3cc(Cl)c(Cl)cc3[nH]2)c2ccccn12"
96.2

Please state recorded growth (tested on HCC-2998 colon) of COc1cc(C2C3=C(COC3=O)Nc3cc4c(cc32)CCC4)cc2c1OCO2 (stereo unspecified)
8.29

Please state recorded growth (tested on HCC-2998 colon) of "Cc1cc(N)n(S(=O)(=O)c2oc(-c3ccccc3)nc2C#N)n1"
114

Please state recorded growth (tested on HCC-2998 colon) of "CCCCN(CCCC)c1ccc(C(=N)c2ccc(N(CCCC)CCCC)cc2)cc1"
-96.7

Please state recorded growth (tested on HCC-2998 colon) of "COc1ccc(-c2nc(/C=C3/C(=O)Nc4ccc(F)cc43)c3ccccn23)cc1"
104

Please state recorded growth (tested on HCC-2998 colon) of "Cn1ncc2c(Sc3ccc(Cl)cc3)ncnc21"
85.7

Please state recorded growth (tested on HCC-2998 colon) of "Cn1ccc(Nc2nccc(Oc3ccc(C(=O)Nc4cccc(F)c4)c(Cl)c3)n2)c1"
81.9

Please state recorded growth (tested on HCC-2998 colon) of "COc1ccc(OC)c(/C=C2\Oc3cc(OCCCN4CCCC4)ccc3C2=O)c1"
87.3

Please state recorded growth (tested on HCC-2998 colon) of CCN1C(=O)N(CC)C2C1NN=c1s/c(=C\c3cccnc3)c(=O)n12 (stereo unspecified)
26.8

Please state recorded growth (tested on HCC-2998 colon) of "ClC(Cl)c1nc(-c2cccnc2)n2nc(-c3ccccc3)cc2n1"
-68.7

Please state recorded growth (tested on HCC-2998 colon) of "c1ccc(-c2nnc(-c3ccccn3)s2)nc1"
46.2

Please state recorded growth (tested on HCC-2998 colon) of "C=C1C(=O)O[C@@H]2[C@@H]3O[C@@](C)(CC/C=C(\C)CCC[C@@H]2C)[C@H](O)C[C@@H]13"
97.5

Please state recorded growth (tested on HCC-2998 colon) of "CC(C)(C)n1cc(-c2ccnc(NCCNS(=O)(=O)c3ccc(C(F)(F)F)cc3)c2)c(-c2cccc(O)c2)n1"
-0.263

Please state recorded growth (tested on HCC-2998 colon) of "COc1cc(-c2ncn(/C=C\C(=O)OC(C)C)n2)cc(C(F)(F)F)c1"
-39.8

Please state recorded growth (tested on HCC-2998 colon) of "Nc1cc2c(cc1C(=O)c1cccc(F)c1)OCCO2"
95.4

Please state recorded growth (tested on HCC-2998 colon) of NC1=NN(O)C2=CC([N+](=O)[O-])C=CC2=N1 (stereo unspecified)
97.2

Please state recorded growth (tested on HCC-2998 colon) of NC(=S)N/N=C1\CCCC(C(F)(F)F)C1 (stereo unspecified)
104

Please state recorded growth (tested on HCC-2998 colon) of "COc1cc(-c2nc(N=Nc3c(O)[nH]c4ccc(Br)cc34)[nH]c(=O)c2C#N)cc(OC)c1OC"
117

Please state recorded growth (tested on HCC-2998 colon) of CC12CCC3C4(C)COC(c5ccccc5Cl)OC4CCC3(C)C1CC(C1=CCOC1=O)O2 (stereo unspecified)
77.4

Please state recorded growth (tested on HCC-2998 colon) of "CCOC(=O)c1cn2c3c(cccc3c1=O)C(=O)/C(=C/c1cccc(Cl)c1Cl)C2"
100

Please state recorded growth (tested on HCC-2998 colon) of "O=C(CCl)N(C1CCCCC1)C1CCCCC1"
107

Please state recorded growth (tested on HCC-2998 colon) of "C=C(C)[C@@H]1C[C@H](O)Cc2cc(F)ccc2N1"
118

Please state recorded growth (tested on HCC-2998 colon) of "O=S(=O)(CC(O)(c1ccccc1)c1ccccc1)CC(O)(c1ccccc1)c1ccccc1"
93.1

Please state recorded growth (tested on HCC-2998 colon) of "COc1ccc2[nH]c(=O)c3c4ccccc4cn3c2c1"
31.3

Please state recorded growth (tested on HCC-2998 colon) of "O=c1[nH]c(NCc2ccccc2)nc2nc(Nc3ccc(NC(=S)Nc4ccccc4)cc3)nc(-c3ccc(O)cc3O)c12"
113

Please state recorded growth (tested on HCC-2998 colon) of "COc1ccc(Nc2nn3c(-c4ccccc4)cc(-c4ccccc4)nc3c2C(N)=O)c(OC)c1"
86.9

Please state recorded growth (tested on HCC-2998 colon) of CC(C)(C)c1[nH]nc2c1C(c1cc3ccccc3[nH]c1=O)Nc1cc(C(=O)Nc3ccc(Cl)cc3)ccc1N2 (stereo unspecified)
86.3

Please state recorded growth (tested on HCC-2998 colon) of "COc1cc(NCCCCCN)c2ncccc2c1"
125

Please state recorded growth (tested on HCC-2998 colon) of "S=C(S)NCCc1c[nH]c2ccccc12"
115

Please state recorded growth (tested on HCC-2998 colon) of "CCCCCc1cc[n+](CC(=O)c2ccc([N+](=O)[O-])cc2)cc1"
58.1

Please state recorded growth (tested on HCC-2998 colon) of "COc1ccccc1CNCCCN1C(=O)c2ccc3c4c(ccc(c24)C1=O)C(=O)N(CCCNCCCCNCCCN)C3=O"
-39

Please state recorded growth (tested on HCC-2998 colon) of "Nc1nc(-c2ccccc2)c(CCCOc2ccc(NC(=O)CBr)cc2)c(=O)[nH]1"
107

Please state recorded growth (tested on HCC-2998 colon) of CC1CCC(C)N(C)C1 (stereo unspecified)
85.2

Please state recorded growth (tested on HCC-2998 colon) of "CCN(CC)c1ccc2[nH]c3c(C(N)=O)cc(=O)c(=O)c=3oc2c1"
-5.4

Please state recorded growth (tested on HCC-2998 colon) of "COc1ccc(-n2c(=S)sc3c(Cl)nc(C)nc32)c(OC)c1"
35.4

Please state recorded growth (tested on HCC-2998 colon) of "Nc1cc2c([nH]c[n+]2CC#CCCl)c(SCC#CCCl)n1"
-96.9

Please state recorded growth (tested on HCC-2998 colon) of "COc1ccc(NC(=O)c2c(Nc3ccc(OC)cc3OC)n[nH]c2N)c(OC)c1"
107

Please state recorded growth (tested on HCC-2998 colon) of "C=C1C(=O)O[C@H]2[C@H]1CC/C(Cn1cc(CNC(=O)/C=C/c3c[nH]c4ccccc34)nn1)=C\CC[C@@]1(C)O[C@@H]21"
118

Please state recorded growth (tested on HCC-2998 colon) of "COc1c2occc2c(OC)c2c(=O)c(-c3cc(-c4ccc(F)cc4)c(C#N)c(N)n3)c(C)oc12"
69.3
